Each item that follows carries a reported inhibition.
molecular target: Genome polyprotein (Dengue virus type 2 (strain 16681-PDK53)) (UniProt P29991); assay: flavivirus cap methylation enzyme inhibition – biochemical, confirmation dose response, primary screen (AID 588689); conditions: Dengue-2 NS5 methyltransferase capping enzyme assay, at 25 µM, stronger effect = higher value
The whole screen tested about 340,000 compounds, of which about 1,000 (0.29%) were called active. Not all results are given here. Potency and affinity values are given separately.

Line notation | Unit spec | inhibition
Cn1nc(-c2ccc(Cl)cc2)cc1NC(=O)Nc1ccccc1 | % | -6.13
O=C1c2ccccc2COc2ccc(O)cc21 | % | 4
COc1cc(/C=C2\SC(=S)N(Nc3ccccc3)C2=O)cc(OC)c1OC | % | -1.38
O=C(O)c1cc2ccccc2c(N=Nc2cccnc2)c1O | % | 0.81
COc1ccc(C(=O)Nc2cccc(-c3ccc4nncn4n3)c2)cc1OC | % | 2.3
